Assign solubility kinetic to each entry below.
- TEST_SETTINGS: buffer; pH 7.4; 200.0 µM
Give bare numbers, in µg/mL.

Sample answers from the record:
1) COc1cc([N+](=O)[O-])ccc1NC(=S)N1CCN(c2ccccn2)CC1: 12.2
2) Nc1ccc(-c2nc3cc([N+](=O)[O-])ccc3o2)cc1: 1.1
3) O=C(Nc1nc2ccc(F)cc2s1)c1cccs1: 1.1

Can you give me solubility kinetic for all of these, one by one?
1. O=C(Nc1nccs1)c1cn2ccccc2n1
2. CCN1C=C(C(=O)OC)C(c2cccc(OC)c2OC)C(C(=O)OC)=C1

[36.2, 8.4]

Data origin: PubChem BioAssay AID1996
